- targetOfAssay: 11-beta-hydroxysteroid dehydrogenase type 2 (Mus musculus)
- Sequence (P51661 whole entry): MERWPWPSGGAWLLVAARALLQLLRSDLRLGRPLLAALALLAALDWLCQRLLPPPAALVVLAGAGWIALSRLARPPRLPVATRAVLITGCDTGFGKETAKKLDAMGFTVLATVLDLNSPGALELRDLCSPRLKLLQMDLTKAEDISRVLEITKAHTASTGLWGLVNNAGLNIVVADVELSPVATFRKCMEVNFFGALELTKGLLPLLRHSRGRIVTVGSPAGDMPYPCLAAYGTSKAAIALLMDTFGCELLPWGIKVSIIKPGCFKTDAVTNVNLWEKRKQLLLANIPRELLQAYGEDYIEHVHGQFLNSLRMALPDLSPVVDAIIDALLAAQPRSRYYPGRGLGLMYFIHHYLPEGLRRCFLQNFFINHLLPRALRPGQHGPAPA
reportedEndpoint: pIC50
Answers are plain numbers, as −log10 of the molar value.

Answer with the recorded pIC50 for the compound listed here: O=C(CC1(c2ccccc2)C2CC3CC1CC(C2)C3O)N1CC(O)C1 (stereo in doubt; form 2) 5.10

The reported measurements were obtained from ChEMBL document CHEMBL4014336.
